What Percent Effect was measured for each of the following?
tested on: Wolbachia pipientis; assay: Anti-Wolbachia Cell-Based Screen; type: functional; design: scale not given: in the data most compounds retested in dose-response had high values; settings: 5 µM
The whole screen tested about 48,000 compounds, of which about 13,000 (27%) showed an effect of 50% or more. The list shows a part of the results.
Give bare numbers, in %.

I have 5 compounds here; please give me Percent Effect for each one.
1. CC1N(CC2CC2)C(=O)COC12CCN(C(=O)c1cscn1)CC2 (centres undefined)
2. CC(C)N1[C@H](Cn2cncn2)C[C@@H]2CN(Cc3cccs3)CC[C@@H]21.O=C(O)C(F)(F)F
3. CN(CCc1cn[nH]c1)C(=O)C(c1ccc(F)cc1)N(C)C (centres undefined)
4. Cc1nc(CN2C(=O)COC3(CCN(Cc4nccs4)CC3)C2C)cs1.O=C(O)C(F)(F)F (centres undefined)
5. CCN(C)c1ncnc2c1CCN(C(=O)c1ccno1)CC2

Outgoing:
1: -4.225; 2: 3.978; 3: -6.005; 4: -7.401; 5: -25.29

I have 8 compounds here; please give me Percent Effect for each one.
1. CN1C(Cn2cccn2)C[C@@H]2CN(C(=O)c3cccc(C#N)c3)CC[C@@H]21.O=C(O)C(F)(F)F.O=C(O)C(F)(F)F (some centres undefined)
2. Cc1ccc(C(C(=O)N(C)CCc2cn[nH]c2)N(C)C)cc1 (centres undefined)
3. O=C(NCCCSC1CCCCC1)C1NCCc2[nH]cnc21 (centres undefined)
4. COCCC1(C(=O)O)CCCN(CCOCc2ccccc2)C1 (centres undefined)
5. O=C(O)C(F)(F)F.O=S(=O)(c1cccs1)N1CCCn2cnc(CN3CCCC3)c2C1
6. CCCc1ccc(CN2CCN(C(=O)CC(C)C)[C@@H]3CS(=O)(=O)C[C@@H]32)o1
7. Cc1ccc(CN2CC[C@H]3[C@H](CC(Cn4cccn4)N3C)C2)s1.O=C(O)C(F)(F)F.O=C(O)C(F)(F)F.O=C(O)C(F)(F)F (some centres undefined)
8. O=C(O)C(F)(F)F.O=C(c1ccncc1)N1CCCn2nnc(COCCO)c2C1

Outgoing:
1: 118.1; 2: 3.285; 3: -0.8236; 4: 2.553; 5: -2.227; 6: -2.422; 7: 96; 8: 26.37

I have 2 compounds here; please give me Percent Effect for each one.
1. CC(C)CCc1nc(CN2CCOC(Cn3cncn3)C2)cs1 (centres undefined)
2. CN(CCc1cn[nH]c1)C(=O)CCc1ccc(Cl)cc1

Outgoing:
124.3
144.4

I have 7 compounds here; please give me Percent Effect for each one.
1. CN1[C@H](Cn2cccn2)C[C@@H]2CN(Cc3cccs3)CC[C@@H]21.O=C(O)C(F)(F)F.O=C(O)C(F)(F)F.O=C(O)C(F)(F)F
2. CC(C)N1[C@H](Cn2cccn2)C[C@@H]2CN(Cc3ccoc3)CC[C@@H]21.O=C(O)C(F)(F)F.O=C(O)C(F)(F)F.O=C(O)C(F)(F)F
3. CN1CC2(CCCN(CCOCc3ccccc3)C2)OC1=O (centres undefined)
4. Cc1nc(CN(C)C2CCN(Cc3cnc(C)s3)C2)no1 (centres undefined)
5. Cc1nc(CN2CCCC(N(C)Cc3nnsc3Cl)C2)no1 (centres undefined)
6. CC(C)(C)c1nnc(CN2CCOC(Cn3cncn3)C2)o1 (centres undefined)
7. COc1ccnc(NC(=O)c2ccsc2)c1

Outgoing:
1: 118; 2: -17.46; 3: 96.52; 4: 106.5; 5: -2.376; 6: 5.198; 7: -4.666

I have 2 compounds here; please give me Percent Effect for each one.
1. CN1[C@H](Cn2cncn2)C[C@@H]2CN(Cc3cccc(C#N)c3)CC[C@@H]21.O=C(O)C(F)(F)F.O=C(O)C(F)(F)F
2. Cc1nc(CN2C(=O)COC3(CCN(Cc4ccsc4)CC3)C2C)cs1.O=C(O)C(F)(F)F (centres undefined)

Outgoing:
1: 3.665; 2: 114.5
